These data points were gathered from patent US9381208B2.

Tested on: human primary monocytes
measurement_notes: IFN-α production in human primary monocytes transfected with RNA (ELISA)
Assay type: cell-based
conditions: monocytes from three donors, 36 hours after transfection; normalized to the mean induction level of all oligonucleotides (=100%)
{ppp} = triphosphate group
metric: IFN-α induction (*100%) mean

[
  {
    "substance": "acaaggggac acacacacac acacacacac (ACAAGGGGACACACACACACACACACACAC; RNA, 5' {ppp}, backbone not given here) [SEQ ID No. 142]",
    "IFN-α induction (*100%) mean": "1.01 *100%"
  },
  {
    "substance": "auaaggggac acacacacac acacacacac (AUAAGGGGACACACACACACACACACACAC; RNA, 5' {ppp}, backbone not given here) [SEQ ID No. 127]",
    "IFN-α induction (*100%) mean": "0.82 *100%"
  },
  {
    "substance": "auugggggac acacacacac acacacacac (AUUGGGGGACACACACACACACACACACAC; RNA, 5' {ppp}, backbone not given here) [SEQ ID No. 167]",
    "IFN-α induction (*100%) mean": "1.31 *100%"
  },
  {
    "substance": "aauuggggac acacacacac acacacacac (AAUUGGGGACACACACACACACACACACAC; RNA, 5' {ppp}, backbone not given here) [SEQ ID No. 119]",
    "IFN-α induction (*100%) mean": "0.67 *100%"
  },
  {
    "substance": "agauggggac acacacacac acacacacac (AGAUGGGGACACACACACACACACACACAC; RNA, 5' {ppp}, backbone not given here) [SEQ ID No. 113]",
    "IFN-α induction (*100%) mean": "0.48 *100%"
  }
]

Could you share which IFN-α induction (*100%) mean value was measured for agcgggggac acacacacac acacacacac (AGCGGGGGACACACACACACACACACACAC; RNA, 5' {ppp}, backbone not given here) [SEQ ID No. 115] ? 0.52 *100%

Could you share which IFN-α induction (*100%) mean value was measured for agugggggac acacacacac acacacacac (AGUGGGGGACACACACACACACACACACAC; RNA, 5' {ppp}, backbone not given here) [SEQ ID No. 143] ? 1.01 *100%

Could you share which IFN-α induction (*100%) mean value was measured for aaauggggac acacacacac acacacacac (AAAUGGGGACACACACACACACACACACAC; RNA, 5' {ppp}, backbone not given here) [SEQ ID No. 146] ? 1.04 *100%

Could you share which IFN-α induction (*100%) mean value was measured for auuuggggac acacacacac acacacacac (AUUUGGGGACACACACACACACACACACAC; RNA, 5' {ppp}, backbone not given here) [SEQ ID No. 138] ? 0.99 *100%

Could you share which IFN-α induction (*100%) mean value was measured for acauggggac acacacacac acacacacac (ACAUGGGGACACACACACACACACACACAC; RNA, 5' {ppp}, backbone not given here) [SEQ ID No. 148] ? 1.11 *100%

Could you share which IFN-α induction (*100%) mean value was measured for acgaggggac acacacacac acacacacac (ACGAGGGGACACACACACACACACACACAC; RNA, 5' {ppp}, backbone not given here) [SEQ ID No. 151] ? 1.14 *100%

Could you share which IFN-α induction (*100%) mean value was measured for aguuggggac acacacacac acacacacac (AGUUGGGGACACACACACACACACACACAC; RNA, 5' {ppp}, backbone not given here) [SEQ ID No. 168] ? 1.32 *100%

Could you share which IFN-α induction (*100%) mean value was measured for agguggggac acacacacac acacacacac (AGGUGGGGACACACACACACACACACACAC; RNA, 5' {ppp}, backbone not given here) [SEQ ID No. 155] ? 1.18 *100%

Could you share which IFN-α induction (*100%) mean value was measured for aucaggggac acacacacac acacacacac (AUCAGGGGACACACACACACACACACACAC; RNA, 5' {ppp}, backbone not given here) [SEQ ID No. 160] ? 1.24 *100%

Could you share which IFN-α induction (*100%) mean value was measured for aaguggggac acacacacac acacacacac (AAGUGGGGACACACACACACACACACACAC; RNA, 5' {ppp}, backbone not given here) [SEQ ID No. 174] ? 1.40 *100%
